ASSAY_DETAILS: Specific activity of purified CHI, absorbance decrease at 384 nm, eriodictyol chalcone; note: unit not given here
Format: biochemical
EXPERIMENTAL_SETUP: purified CHI in 50 mM PBS, 100 μM substrate, 25° C.
PARAMETER_MEASURED: Specific activity, Eriodictyol chalcone

MOLECULE	PARAMETER_MEASURED	RECORDED_VALUE
CHIera Mut5: Chalcone isomerase variant 5 from Eubacterium ramulus, genetically engineered (protein, listed as Eubacterium ramulus) MADFKFEPMRSLIYVDCVSEDYRPKLQRWIYKVHIPDSISKFEPYVTKYAFYPSFPIPPQGDRFGYARMQLTEHHWLVSPLDPRLEINAIAETFPMDVLVWQGQIPAAAHTDAQIDSDGDAGRAAKKSNNAEGNPFIFAFLPMWWEKDLKGKGRTIEDGANYRFNMTIGFPEGVDKAEGEKWLFEKVVPILQAAPECTRVLASAVKKDINGCVMDWVLEIWFENQSGWYKVMVDDMKALEKPSWAQQDAFPFLKPYHNVCSAAVADYTPSNNLANYRGYITMR	Specific activity, Eriodictyol chalcone	13.5

Look up Specific activity, Eriodictyol chalcone: CHI14: Chalcone isomerase from Butyrivibrio sp. AC2005, access no. WP_026657636.1 (protein, Butyrivibrio sp. AC2005) AYEFNLMRSLIYVGLAKEEYRAKLEHWLYNHHVPESISKFSPYVTKYAFYQAYPTPPEGDRFGARKMQLTEHYWLVNEHLPEMANNIFQEFMPMDVLRWQGCIPDVDSATVHDNAESGDAGRAVGGGDFPPFIFAFVPINWEEDFKGKERTPVNGPNFRWQFLIQYPEGCSKDEGERWFHEEVVPFLTGSVRVNRLVSSKVKVNYGAPSAQFDRLVEVWFDGPEEWYDLCVNLAKDKLKKPEWAQQDTFPFLKPQHNIASMFLGDRCTSDNLTQYRGFITMR
50.4

Moving on to CHI1: Chalcone isomerase from Fusibacter sp. 3D3, access no. WP_069876268.1 (protein, Fusibacter sp. 3D3) SYVPEFKPMRSFILNNVRSDNDRPKAFRWLYKQHVPESISQFRPYCTKYATYHALPLVEGAEQFGTYNWIMTEHYWNFNIFQDKGLGHSRGLAFTEAYPHDFMEITCQPPSNTLRQSGWQGSAEGYHPIVFCFAPIFWENDFKGSERLTDDGANFRWLFFLSYPEGVTVEEGDQWFLETFAKEAAEMPEVIRFLSSRVMDSPRINPFDRIVELWFDDSEAWHNAMVKNGHLFTKPAWSKVDQFPFFEAYKDITGVFIMDRPDSDHLAQWQGYITTR
18.2

Sourced from patent US20240150797A1
